- target-under-test: Extracellular calcium-sensing receptor (Rattus norvegicus) (UniProt P48442)
- Sequence (whole entry): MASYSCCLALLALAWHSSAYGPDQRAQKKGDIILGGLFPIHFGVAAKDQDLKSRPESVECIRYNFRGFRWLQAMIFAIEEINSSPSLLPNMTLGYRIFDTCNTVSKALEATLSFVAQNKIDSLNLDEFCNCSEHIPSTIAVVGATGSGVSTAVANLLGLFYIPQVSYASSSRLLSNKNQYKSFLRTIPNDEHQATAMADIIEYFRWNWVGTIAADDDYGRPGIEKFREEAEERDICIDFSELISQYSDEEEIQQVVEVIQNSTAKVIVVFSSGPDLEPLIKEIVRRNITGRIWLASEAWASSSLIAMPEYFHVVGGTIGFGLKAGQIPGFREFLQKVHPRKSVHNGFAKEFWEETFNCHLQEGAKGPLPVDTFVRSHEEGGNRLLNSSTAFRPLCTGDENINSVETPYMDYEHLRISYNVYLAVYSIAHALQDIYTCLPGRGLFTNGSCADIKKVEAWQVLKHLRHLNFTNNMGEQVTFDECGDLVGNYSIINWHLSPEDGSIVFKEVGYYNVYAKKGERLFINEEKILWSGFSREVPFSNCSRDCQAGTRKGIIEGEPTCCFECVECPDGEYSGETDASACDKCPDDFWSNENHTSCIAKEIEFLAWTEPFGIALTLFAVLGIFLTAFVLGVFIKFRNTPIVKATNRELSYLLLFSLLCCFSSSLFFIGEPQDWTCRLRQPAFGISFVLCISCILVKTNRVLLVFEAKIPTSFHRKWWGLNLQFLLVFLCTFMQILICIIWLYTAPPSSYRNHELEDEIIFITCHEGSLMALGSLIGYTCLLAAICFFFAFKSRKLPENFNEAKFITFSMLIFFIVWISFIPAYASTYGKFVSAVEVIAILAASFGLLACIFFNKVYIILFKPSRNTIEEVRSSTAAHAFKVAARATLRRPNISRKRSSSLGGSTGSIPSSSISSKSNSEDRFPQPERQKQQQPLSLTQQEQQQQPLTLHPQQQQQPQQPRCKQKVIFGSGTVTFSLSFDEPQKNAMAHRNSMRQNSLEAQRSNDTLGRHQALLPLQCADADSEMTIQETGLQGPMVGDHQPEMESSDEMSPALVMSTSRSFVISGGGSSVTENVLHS
- test: Activity at rat CaSR in CHO cells assessed as inhibition of calcium ion-induced [3H]inositol phosphate accumulation at 1 uM
- Type: functional, cell-based
measured-endpoint: inhibition (%)

These recorded examples may help you get a feel for the data.
{"molecule": "CC(N[C@@H]1CCCC[C@H]1NC(=O)c1ccccc1C(F)(F)F)c1cccc2ccccc12 (relative stereo)", "inhibition (%)": 36}
{"molecule": "CC(N[C@@H]1CCCC[C@H]1NC(=O)c1ccc(Cl)cc1)c1cccc2ccccc12 (relative stereo)", "inhibition (%)": 90}
{"molecule": "CC(N[C@@H]1CCCC[C@H]1NC(=O)c1ccccc1)c1cccc2ccccc12 (relative stereo)", "inhibition (%)": 33}
{"molecule": "CC(C)(Cc1ccc2ccccc2c1)NC[C@@H](O)COc1cccc(Cl)c1C#N", "inhibition (%)": 77}

a: CC(N[C@@H]1CCCC[C@H]1NC(=O)c1ccccn1)c1cccc2ccccc12 (relative stereo)
b: COc1ccc(S(=O)(=O)N[C@@H]2CCCC[C@H]2NC(C)c2cccc3ccccc23)cc1 (stereo partly drawn)
c: CC(N[C@@H]1CCCC[C@H]1NC(=O)c1ccc(OC(F)(F)F)cc1)c1cccc2ccccc12 (relative stereo)
d: CC(N[C@@H]1CCCC[C@H]1NS(=O)(=O)c1ccc(OC(F)(F)F)cc1)c1cccc2ccccc12 (relative stereo)
Task: List from greatest to least inhibition. To answer, arrange all of the labels according to the requested order.
Result: c, a, b, d

A: CC(N[C@@H]1CCCC[C@H]1NC(=O)c1cc2ccccc2[nH]1)c1cccc2ccccc12 (relative stereo)
B: CC(N[C@@H]1CCCC[C@H]1NC(=O)c1ccccc1Cl)c1cccc2ccccc12 (relative stereo)
Task: Kindly identify which of A and B has the larger recorded inhibition value. // return label of chosen record
Result: A
(A: 33%, B: 19%)

I: O=[N+]([O-])c1ccc(S(=O)(=O)N[C@@H]2CCCC[C@H]2NCc2cccc3ccccc23)cc1 (relative stereo)
II: CC(N[C@@H]1CCCC[C@H]1NC(=O)c1ccc(Cl)c(Cl)c1)c1cccc2ccccc12 (relative stereo)
Task: Lower inhibition: I or II ? // return label of chosen record
Result: I
(I: 1%, II: 82%)
